Assign z-score to each entry below.
- testSystem: NADPH oxidase 5 (Homo sapiens) (UniProt Q96PH1)
- Sequence (Q96PH1 whole entry, looked up): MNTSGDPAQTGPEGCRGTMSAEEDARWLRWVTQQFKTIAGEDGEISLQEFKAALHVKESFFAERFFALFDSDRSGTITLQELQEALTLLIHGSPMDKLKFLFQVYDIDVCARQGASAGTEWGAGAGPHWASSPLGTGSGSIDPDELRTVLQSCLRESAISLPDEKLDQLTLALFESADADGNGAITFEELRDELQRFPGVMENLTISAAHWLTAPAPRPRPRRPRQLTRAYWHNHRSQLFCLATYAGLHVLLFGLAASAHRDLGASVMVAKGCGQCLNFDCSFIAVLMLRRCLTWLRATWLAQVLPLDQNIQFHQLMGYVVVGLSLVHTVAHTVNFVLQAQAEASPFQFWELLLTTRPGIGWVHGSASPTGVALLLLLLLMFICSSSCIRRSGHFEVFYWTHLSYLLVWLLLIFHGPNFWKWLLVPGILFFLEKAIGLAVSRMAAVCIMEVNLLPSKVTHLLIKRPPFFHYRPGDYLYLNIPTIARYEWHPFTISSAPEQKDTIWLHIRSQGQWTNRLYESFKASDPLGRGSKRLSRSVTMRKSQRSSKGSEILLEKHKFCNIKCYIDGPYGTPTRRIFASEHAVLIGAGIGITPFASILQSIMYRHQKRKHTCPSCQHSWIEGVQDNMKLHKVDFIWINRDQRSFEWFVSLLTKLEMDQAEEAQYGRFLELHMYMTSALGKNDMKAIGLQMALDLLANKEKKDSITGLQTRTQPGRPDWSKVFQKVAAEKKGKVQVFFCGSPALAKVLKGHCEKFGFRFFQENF
- procedureSummary: compounds shifting NOX5 Amplex Red fluorescence – cell-based, HEK293-NOX5, NOX inhibitor project, primary screen (AID 1161)
- measurementSetup: HEK293-NOX5, ionomycin, 45 min, higher = more signal
Give only the figure.

Quick one: z-score of O=C1C2C=CC(C(O)c3ccc(Br)cc3)N(n3cnnc3)C2C(=O)N1Cc1ccccc1 (stereo not given) ?
0.964

Next: O=C1OCCC=C[C@H]2OC34C=CCN(CCN5CCOCC5)C(=O)[C@H]3N(CCO)C(=O)[C@@H]4C12 (stereo not given in full)
0.0715

Entry to check: NC(=O)[C@@]1(CCS(=O)(=O)c2ccccc2)N=C(c2ccc(OCCCO)cc2)O[C@H]1c1ccccc1
-1.61

Same thing, different molecule: [N-]=[N+]=NCc1ccccc1C[C@]1(C(=O)NCC(O)CO)COC(c2ccc(OCCCO)cc2)=N1 (stereo not given in full)
-2.11

Please give the result for C=C[C@H](C)[C@H](OC(=O)Nc1ccc(OC)cc1)c1ccc(O)c2ccccc12 too.
-0.256

Field entry: CN1C(=O)C2C(C1=O)C1C=C(c3ccc(CO)cc3)C2C(C2CC2)N1Cc1sc2ccccc2c1Cl (stereo not given)
-3.7

Same question for C=C[C@H](C)[C@H](O)c1ccc(OCCO)cc1 please.
-0.112

Query CC(=O)NCCCC[C@@H]1NC(=O)[C@@H]2C[C@H](C(=O)NCc3ccc(F)cc3)[C@H](c3ccc(O)cc3)N2C1=O next
1.37

Lookup O=C1c2ccccc2[C@@]2(Cc3ccccc3N(Cc3ccccc3)C2=O)[C@H](c2ccc(CO)cc2)N1Cc1ccccc1C(F)(F)F
1.77

Here is the next molecule: COC(=O)c1c(CC[C@@H](CO)NC(=O)Nc2ncn[nH]2)oc(C(=O)Cc2ccccc2)c1C(=O)OC
-0.53

====

- procedureSummary: FRG1 expression reporter modulators in myotubes – cell-based, C2C12 myotubes, firefly/Renilla luciferase, luminescence, FRG1 inhibition for FSHD, primary screen (AID 1084)
- measurementSetup: FRG1 promoter luciferase, higher = more signal, called active from +8 up or from −8 down
# class assignment by measured z-score: b0: < -0.3; b1: ≥ -0.3 and < 1; b2: ≥ 1

Hi there! Could you help me figure out the category for [N-]=[N+]=NCc1ccccc1C[C@]1(C(=O)NCC(O)CO)COC(c2ccc(OCCCO)cc2)=N1 (stereo not given in full) please?
b0

And the next one, C=CCOC(=O)[C@@H]1[C@H]2C(=O)O[C@H](c3ccccc3)[C@H](c3ccccc3)N2[C@H](c2ccc(OCCOC(=O)[C@H]3C[C@H]4C(=O)N[C@@H](CCCC[N+](C)(C)C)C(=O)N4[C@H]3c3cccc(OCCO)c3)cc2)[C@@]12C(=O)Nc1ccc(I)cc12 ?
b1

For CN(C)CCCC[C@@H]1NC(=O)[C@@H]2C[C@H](C(=O)NCc3ccc(F)cc3)[C@H](c3cccc(OCCO)c3)N2C1=O then?
b2

Entry C=C(COC)/C(=C/C[C@H](OC(C)=O)c1ccccc1OCCO)c1cnc2ccccc2c1 please
b1

Try this molecule too: CCCC[C@@H]1C[C@H]1[C@@H](NC(=O)c1ccccc1)c1ccccc1
b1

Next entry: Cc1c(NC(=O)/C(C#N)=C/C=C/c2ccccc2)c(=O)n(-c2ccccc2)n1C
b2

Now the same for C=C[C@@H](C)[C@@H](OC(=O)Nc1ccc(OC)cc1)c1ccc(O)c2ccccc12
b2

How about CN(C)CCCCNC(=O)[C@@H]1C[C@@H]2C(=O)N[C@@H](CCCCN)C(=O)N2[C@@H]1c1cccc(OCCO)c1 ?
b2

Moving on to the next molecule: CC(C)NC(=O)[C@@]1(c2ccc([N+](=O)[O-])cc2)CC(=O)N(C(C)C)[C@@H]1c1ccc(CO)cc1
b0

Next up: [N-]=[N+]=NCc1ccccc1C[C@]1(C(=O)NCCN2CCOCC2)N=C(c2ccc(OCCCO)cc2)O[C@H]1c1ccccc1CN=[N+]=[N-]
b1

Moving on to O=C1OCCC/C=C\[C@H]2OC34C=CCN(CCN5CCOCC5)C(=O)[C@H]3N(CCO)C(=O)[C@@H]4C12 (stereo not given in full)
b1

Repeat for the following molecule: COC(=O)[C@@]1(Cc2ccc(F)cc2)[C@H]2c3cc(C(=O)N4CCCC4)n(CCc4ccc(OC)c(Br)c4)c3C[C@H]2CN1C(=O)c1ccccc1
b0

Please do the same for O=C(NCC(O)CO)[C@@]1(Cc2ccccc2)COC(c2ccc(OCCCO)cc2)=N1 (stereo not given in full) as well.
b1

Also need O=C1C[C@@](C(=O)O)(c2ccc([N+](=O)[O-])cc2)[C@@H](c2ccc(CO)cc2I)N1CC12CC3CC(CC(C3)C1)C2 , thanks.
b0

====

- procedureSummary: COS7 lysate on small-molecule microarray, probe aHis, 635 nm (AID 1123);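 note: z-score combines 667nm fluorescence intensity with signal-to-noise per printed compound spot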
- measurementSetup: COS7 cell lysate, fluorescence, higher = more signal
composite z-score of 1 or higher: satisfied. Under 1: not satisfied.

Is the recorded value of composite z-score equal to or greater than 1 for this compound? Cc1ccc(S[C@]2(C(=O)NCCN3CCOCC3)CC(=O)N(C3CCCCC3)[C@@H]2c2ccc(CO)cc2)cc1
satisfied

Please give the result for O=C1C2C=CC(C(O)c3ccc(-c4ccccc4)s3)N(Nc3ccccc3F)C2C(=O)N1c1ccccc1 (stereo unspecified) too.
satisfied

Also CCOC(=O)C1=CC[C@@H](c2ccccc2)N(S(=O)(=O)c2ccc(C)cc2)[C@H]1c1ccc(C#N)cc1 , if possible.
satisfied

How about this compound: O=C1O[C@H](c2ccccc2)[C@H](c2ccccc2)N2[C@H]1[C@@H](C(=O)NC[C@H](O)c1ccccc1)[C@]1(C(=O)Nc3ccc(C#CC4(O)CCCCCC4)cc31)[C@H]2c1ccccc1OCCO
satisfied

Field entry: COc1ccc([Si](C)(C)[C@@H]2[C@@H](CCO)O[C@]3(C(=O)N(Cc4ccc(N5C(=O)c6cccc7cccc5c67)cc4)c4ccccc43)[C@H]2C)cc1
not satisfied

Same question, COCCOC(=O)N1C(=O)[C@@]2(c3ccccc31)[C@H](c1ccc(O)cc1)N1[C@H](c3ccccc3)[C@H](c3ccccc3)OC(=O)[C@H]1[C@@H]2C(N)=O this time
not satisfied

====

Please go through the items and note down their composite z-score.
- System: glycogen synthase kinase-3 (GSK3A per assay name; protocol says GSK3B)
- procedureSummary: compounds binding glycogen synthase kinase-3 – biochemical, small-molecule microarray, 635 nm fluorescence, GSK3A, primary screen (AID 1103); note: the record names both GSK3A and GSK3B
- measurementSetup: fluorescence 635 nm, higher = more signal
Give the figure by itself; no unit, no explanation.

Look at this compound and give its reported composite z-score. C=CCOC(=O)[C@@H]1[C@H]2C(=O)O[C@H](c3ccccc3)[C@H](c3ccccc3)N2[C@H](c2ccc(OCCOC(=O)[C@H]3C[C@H]4C(=O)N[C@@H](Cc5ccccc5)C(=O)N4[C@H]3c3ccc(O)cc3)cc2)[C@@]12C(=O)Nc1ccc(I)cc12
1.33

Now try CN1C(=O)C2C=CC(C(O)c3ccccc3)N(NC(=O)OC(C)(C)C)C2C1=O (stereo not drawn) .
0.459

Now the compound CC(C)(C)OC(=O)CC[C@@]1(C(=O)N2CCOCC2)N=C(c2ccc(OCCCO)cc2)O[C@@H]1c1ccccc1N=[N+]=[N-]
0.451

====

- testSystem: E3 ubiquitin-protein ligase XIAP (Homo sapiens) (UniProt P98170)
- Sequence (P98170 whole entry, looked up): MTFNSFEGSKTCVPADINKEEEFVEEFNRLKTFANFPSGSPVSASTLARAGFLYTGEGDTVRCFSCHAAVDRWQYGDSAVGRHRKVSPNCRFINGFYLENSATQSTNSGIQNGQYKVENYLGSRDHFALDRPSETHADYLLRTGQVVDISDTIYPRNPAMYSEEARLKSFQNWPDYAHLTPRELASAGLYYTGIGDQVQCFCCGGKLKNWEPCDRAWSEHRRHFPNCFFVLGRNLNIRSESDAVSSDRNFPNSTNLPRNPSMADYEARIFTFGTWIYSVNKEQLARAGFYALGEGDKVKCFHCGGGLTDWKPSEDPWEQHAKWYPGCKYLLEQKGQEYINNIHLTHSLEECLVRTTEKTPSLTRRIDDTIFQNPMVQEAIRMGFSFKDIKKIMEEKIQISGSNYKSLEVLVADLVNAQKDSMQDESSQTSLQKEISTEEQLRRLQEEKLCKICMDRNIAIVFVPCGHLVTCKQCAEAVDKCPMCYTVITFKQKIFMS
- procedureSummary: small molecules binding XIAP protein – biophysical, small-molecule microarray, fluorescence 635 nm, primary screen (AID 1181);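 note: score merges 667 nm emission and signal to noise over triplicate slides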
- measurementSetup: higher = more signal
Would you kindly list composite z-score for each of these molecules?
Please respond with just the number, no unit label.

Query: composite z-score; subject: O=C1OCCC=C[C@H]2OC34C=CCN(CCN5CCOCC5)C(=O)[C@H]3N(CCO)C(=O)[C@@H]4C12 (stereo partly drawn)
0.0264

Quick one: COc1c(C)cc(-c2cc3c(c(-c4ccccc4)n2)[Si](C(C)C)(C(C)C)O[C@H]3c2ccccc2)cc1C
-0.0186

Queued: C=CC[C@@]1(C(N)=O)N=C(c2ccc(OCCCO)cc2)O[C@@H]1c1ccccc1N=[N+]=[N-]
0.0896

Please answer likewise for CCOC1=C2C(c3ccc(C)cc3)N(S(=O)(=O)c3ccc(C)cc3)CC2n2c(=O)n(-c3ccccc3)c(=O)n2C1 (stereo not drawn)
0.199

Likewise for O=C1[C@H]2C=C(Br)[C@H](C[C@@H]2OCCOCCO)[C@@]12CO2 ?
-0.201

And the next one, [N-]=[N+]=NCc1ccccc1[C@H]1OC(c2ccc(OCCCO)cc2)=N[C@@]1(Cc1ccccc1)C(=O)NCC(O)CO (stereo partly drawn) ?
0.459

Repeat for the following molecule: C#C[C@H](O[Si](C#CCCCCCC)(C(C)C)C(C)C)c1ccccc1
0.0406

Please do the same for CC(=O)n1cc(C(O)C2C=CC3C(=O)N(c4ccccc4)C(=O)C3N2Nc2ccc(C#N)cc2)c2ccccc21 (stereo not drawn) as well.
0.147
